TESTED_ON: GST-PPARG-LBD (Homo sapiens (Human), UniProt P37231)
Sequence (P37231 238-503): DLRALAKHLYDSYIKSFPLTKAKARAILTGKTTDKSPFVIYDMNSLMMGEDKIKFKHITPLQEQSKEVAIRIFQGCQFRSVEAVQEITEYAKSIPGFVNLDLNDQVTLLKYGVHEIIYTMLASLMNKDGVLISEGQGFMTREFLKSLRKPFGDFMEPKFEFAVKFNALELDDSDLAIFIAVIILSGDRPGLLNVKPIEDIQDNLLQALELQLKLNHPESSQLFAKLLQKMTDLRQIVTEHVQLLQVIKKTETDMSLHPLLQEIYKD
ASSAY: Lanthascreen PPARG competitive binding assay (Invitrogen, TR-FRET)
CONDITION_SET: Lanthascreen competitive binding; NA = not active; inc = incomplete curve; read-out: IC50 (nM) Lantha
Method: Lanthascreen PPARG Competitive Binding Assay (Invitrogen) The assay was performed according to manufacturer protocol. […] Experiment was performed in triplicate, and incubated for 2 hours in the dark prior to assay read in Perkin Elmer ViewLux ultra HTS microplate reader. FRET signal was measured by excitation at 340 nm and emission at 520 nm for fluorescein and 490 nm for terbium. Fold change over DMSO was calculated using GraphPad Prism Software (La Jolla, Calif.) by calculating 520 nm/490 nm ratio. […]
The entries below come with measured IC50 values attached.
PARAMETER_MEASURED: IC50 (nM)

>>> df
                                    molecule  unit_string  prefix_operator  recorded_number
 0  C[C@H](NC(=O)c1ccc2c(ccn2Cc2ccc(-c3cccc(N)c3)cc2)c1)c1ccc([N+](=O)[O-])cc1           nM                >             1000
 1  Cc1c(C)n(Cc2ccc(-c3ccccc3C(=O)O)cc2)c2ccc(C(=O)N[C@@H](C)c3cccc(Br)c3)cc12           nM                =               58
 2  Cc1c(C)n(Cc2ccc(-c3ccccc3C(=O)O)cc2)c2ccc(C(=O)N[C@@H](C)c3ccc(C(F)(F)F)cc3C(F)(F)F)cc12           nM                =              241
 3  Cc1c(C)n(Cc2ccc(-c3ccccc3C(=O)O)cc2)c2ccc(C(=O)NCc3ccc(S(C)(=O)=O)cc3)cc12           nM                =              553
 4  Cc1c(C)n(Cc2ccc(-c3ccccc3C(=O)O)cc2)c2ccc(C(=O)N[C@@H](C)c3ccccc3Cl)cc12           nM                <                1
 5  Cc1c(C)n(Cc2ccc(-c3ccccc3C(=O)O)cc2)c2ccc(C(=O)N[C@@H](C)c3ccc(Cl)c(Cl)c3)cc12           nM                =               10
 6  CCC(NC(=O)c1ccc2c(ccn2Cc2cccc(-c3ccccc3C(=O)O)c2)c1)c1ccccc1 (stereo not drawn)           nM                =                6
 7  Cc1c(C)n(Cc2ccc(-c3ccccc3C(=O)O)cc2)c2ccc(C(=O)NC(C)CCc3ccccc3)cc12 (stereo not drawn)           nM                =                3
 8  COc1ccc(CNC(=O)c2ccc3c(c2)c(C)c(C)n3Cc2ccc(-c3ccccc3C(=O)O)cc2)c(OC)c1           nM                =               16
 9  CC[C@H](NC(=O)c1ccc2c(ccn2Cc2ccccc2-c2cccc(C(=O)O)c2)c1)c1ccccc1           nM                =               80
10  CCC(NC(=O)c1ccc2c(ccn2Cc2ccccc2-c2ccc(C(=O)O)cc2)c1)c1ccccc1 (stereo not drawn)           nM                =               10
11  Cc1c(C)n(Cc2ccc(-c3ccccc3C(=O)O)cc2)c2ccc(C(=O)NCc3ccc(N)cc3)cc12           nM                =                4
12  Cc1c(C)n(Cc2ccc(-c3ccccc3C(=O)O)cc2)c2ccc(C(=O)N[C@H](C)c3cc(F)ccc3C(F)(F)F)cc12           nM                =               17
13  Cc1c(C)n(Cc2ccc(-c3ccccc3C(=O)O)cc2)c2ccc(C(=O)N[C@@H](C)[C@H]3CCCN3C(=O)OCc3ccccc3)cc12           nM                =               20
14  Cc1c(C)n(Cc2ccc(-c3ccccc3C(=O)O)cc2)c2ccc(C(=O)N[C@@H](C)c3ccnc(C4CC4)c3)cc12           nM                =              352
15  COc1cccc([C@H](C)NC(=O)c2ccc3c(c2)c(C)c(C)n3Cc2ccc(-c3ccccc3C(=O)O)cc2)c1           nM                =               13
16  COc1ccc([C@H](C)NC(=O)c2ccc3c(c2)c(C)c(C)n3Cc2ccc(-c3ccccc3C(=O)O)cc2)cc1Cl           nM                =               17
17  Cc1c(C)n(Cc2ccc(-c3ccccc3C(=O)O)cc2)c2ccc(C(=O)N[C@@H](C)C3COc4ccccc4O3)cc12 (stereo partly drawn)           nM                =               25
18  COc1ccc(F)cc1[C@@H](C)NC(=O)c1ccc2c(c1)c(C)c(C)n2Cc1ccc(-c2ccccc2C(=O)O)cc1           nM                =                5
19  Cc1c(C)n(Cc2ccc(-c3ccccc3C(=O)O)cc2)c2ccc(C(=O)NCC3COc4ccccc4O3)cc12 (stereo not drawn)           nM                =               11
20  Cc1c(C)n(Cc2ccc(-c3ccccc3C(=O)O)cc2)c2ccc(C(=O)NC(C)c3cncc(C4CC4)c3)cc12 (stereo not drawn)           nM                =               19
21  C[C@H](NC(=O)c1ccc2c(ccn2Cc2ccc(-c3ccc(O)cc3)cc2)c1)c1ccc([N+](=O)[O-])cc1           nM                =              300
22  Cc1c(C)n(Cc2ccc(-c3ccccc3C(=O)O)cc2)c2ccc(C(=O)N[C@@H](C)c3ccc(N)cc3)cc12           nM                =              240
23  Cc1c(C)n(Cc2ccc(-c3ccccc3C(=O)O)cc2)c2ccc(C(=O)N[C@H](C)c3cc(C(F)(F)F)ccc3C(F)(F)F)cc12           nM                =                4
24  Cc1c(C)n(Cc2ccc(-c3ccccc3C(=O)O)cc2)c2ccc(C(=O)N[C@@H](CO)c3ccccc3)cc12           nM                =               37
25  Cc1c(C)n(Cc2ccc(-c3ccccc3C(=O)O)cc2)c2ccc(C(=O)NC(C)c3cccc4ccccc34)cc12 (stereo not drawn)           nM                =                2
26  Cc1c(C)n(Cc2ccc(-c3ccccc3C(=O)O)cc2)c2ccc(C(=O)N[C@H](C)c3ccc(C(F)(F)F)c(F)c3)cc12           nM                <                1

Where do the numbers come from? From patent US8957093B2.
